Consider the following molecules and their measured pIC50 readings.
# System: UniProt P30099
# Sequence (P30099 whole entry): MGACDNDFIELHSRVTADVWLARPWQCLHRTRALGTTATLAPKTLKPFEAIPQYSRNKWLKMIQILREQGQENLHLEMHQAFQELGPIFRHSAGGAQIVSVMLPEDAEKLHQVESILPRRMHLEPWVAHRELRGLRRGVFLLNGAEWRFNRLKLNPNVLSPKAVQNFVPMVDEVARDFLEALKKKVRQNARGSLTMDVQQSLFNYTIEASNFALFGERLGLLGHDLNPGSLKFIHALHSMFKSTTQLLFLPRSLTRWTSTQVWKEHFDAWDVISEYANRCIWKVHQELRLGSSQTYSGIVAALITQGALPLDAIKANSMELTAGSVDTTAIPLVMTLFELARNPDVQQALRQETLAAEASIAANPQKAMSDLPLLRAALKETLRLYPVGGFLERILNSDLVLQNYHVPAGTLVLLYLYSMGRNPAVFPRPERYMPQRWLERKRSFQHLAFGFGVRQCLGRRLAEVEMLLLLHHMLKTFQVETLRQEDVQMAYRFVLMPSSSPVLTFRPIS
# Measurement protocol: Inhibition of rat recombinant CYP11B2 using 11-deoxycorticosterone as substrate by cell-based assay
Scale explanation: pIC50 corresponds to minus log10 of a concentration expressed in moles per litre.

Examples from the recorded data:
N#Cc1ccc([C@H]2CCCCc3cncn32)c(-c2ccc(F)cc2)c1
9.00
Cc1cc(C#N)ccc1[C@H]1CCc2cncn21
7.62

API: the following record is the query input.
Look up pIC50: N#Cc1ccc([C@H]2CCc3cncn32)c(F)c1
6.95

* * *

Consider the following molecules and their measured inhibition at 1.5 h, 1 µM readings.
# System: CYP19 (aromatase) (Homo sapiens)
# Sequence (P11511 whole entry): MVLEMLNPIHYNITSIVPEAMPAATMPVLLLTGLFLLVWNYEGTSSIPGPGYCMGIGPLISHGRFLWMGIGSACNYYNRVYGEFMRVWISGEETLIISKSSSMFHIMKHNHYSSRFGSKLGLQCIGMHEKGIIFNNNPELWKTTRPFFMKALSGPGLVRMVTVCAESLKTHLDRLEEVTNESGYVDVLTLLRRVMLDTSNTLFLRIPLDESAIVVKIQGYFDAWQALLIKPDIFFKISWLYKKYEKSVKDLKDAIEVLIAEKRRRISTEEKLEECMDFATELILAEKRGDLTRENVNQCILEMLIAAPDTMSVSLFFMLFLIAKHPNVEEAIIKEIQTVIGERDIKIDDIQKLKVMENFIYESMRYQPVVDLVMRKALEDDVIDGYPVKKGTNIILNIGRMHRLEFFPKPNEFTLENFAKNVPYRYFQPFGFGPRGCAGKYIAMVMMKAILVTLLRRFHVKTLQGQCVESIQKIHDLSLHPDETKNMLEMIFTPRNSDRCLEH
# Measurement protocol: Inhibition of human CYP19 at 1 uM preincubated for 10 mins followed by protein addition measured after 90 mins by fluorimetric analysis relative to control
The figure you give is taken to be in %; do not add the unit.

N#Cc1ccc([C@H]2CCCc3cncn32)c(F)c1
20
N#Cc1ccc([C@@]2(C(=O)OCc3ccc(F)cc3)CCc3cncn32)c(Cl)c1
95
COc1cc(C#N)ccc1C1CCCc2cncn21 (racemic)
100
N#Cc1ccc([C@H]2CCCCc3cncn32)c(Cl)c1
100
COc1cc(C#N)ccc1[C@H]1CCc2cncn21
80
N#Cc1ccc([C@H]2CCc3cncn32)c(Br)c1
47
N#Cc1ccc(C2CCCc3cncn32)c(Cl)c1 (racemic)
99
Cc1cc(C#N)ccc1C1CCCc2cncn21 (racemic)
100
Cc1cc(C#N)ccc1[C@H]1CCc2cncn21
87

API: the following record is the query input.
Look up inhibition at 1.5 h, 1 µM: COc1cc(C#N)ccc1[C@@]1(C(=O)N(C)Cc2ccc(F)cc2)CCc2cncn21
45
